Data origin, for the record: PubChem BioAssay (Tox21)

# Test Details: Caspase-3/7 induction in CHO-K1 cells by small molecules, qHTS assay (AID 1346980); further: nearly all actives have a fitted effect of over 15% in size
# Assay Context: CHO-K1 caspase-3/7 induction, Caspase-Glo luminescence, 17 h; series mostly up to 92.4 µM
Calls of active or inactive are those of the source. The call rests on the fitted dose curve; in most records, active means well fitted activation curve with a large enough effect in the repeat runs; inconclusive means weak or mixed curves; inactive means flat fitted curve, though single readings scatter.
Outcome codes: active, inactive

CCc1oc2ccccc2c1C(=O)c1cc(Br)c(O)c(Br)c1
inactive
Cc1cc(O)c(C(C)(C)C)cc1Sc1cc(C(C)(C)C)c(O)cc1C
inactive
CCN(C(=O)N(CC)c1ccccc1)c1ccccc1
inactive
C[n+]1ccn(Cc2ccccc2)c1
inactive
O=C1c2c(O)ccc(Nc3ccc(CCO)cc3)c2C(=O)c2c([N+](=O)[O-])ccc(O)c21
inactive
Cc1cccc(N(C)C(=S)Oc2ccc3c(c2)C2CCC3C2)c1 (configuration not stated)
inactive
Oc1cccc2cc3cccc(O)c3c(O)c12
inactive
O=C(Nc1ccc(Oc2ccc(Cl)cc2)c(Cl)c1)c1cc(I)cc(I)c1O
inactive
NNc1nc(-c2ccc(N)cc2)cs1
inactive
C=C(C)C(=O)OCC(O)COc1ccc(C(C)(C)c2ccc(OCC(O)COC(=O)C(=C)C)cc2)cc1 (configuration not stated)
inactive
CC1=NC(C)OC1C (configuration not stated)
inactive
CCOc1nc2cccc(C(=O)OC(C)OC(=O)OC3CCCCC3)c2n1Cc1ccc(-c2ccccc2-c2nn[nH]n2)cc1 (configuration not stated)
active
CCCCCCCCOC(=O)c1ccc(O)cc1
inactive
O=C1C=CC(=O)N1
inactive
Fc1ccc([C@@H]2CCNC[C@H]2COc2ccc3c(c2)OCO3)cc1
inactive
CC(=O)N1CCN(c2ccc(OC[C@H]3CO[C@](Cn4ccnc4)(c4ccc(Cl)cc4Cl)O3)cc2)CC1
inactive
N=C1C=CC(=C(c2ccc(N)cc2)c2ccc(N)cc2)C=C1
inactive
CN(C)c1ccc(C2(c3ccc(N(C)C)cc3)OC(=O)c3cc(N(C)C)ccc32)cc1
inactive
Cc1[nH]nc2c1N=C(c1ccccc1Cl)c1cc([N+](=O)[O-])ccc1N2
active
CC[C@H]1O[C@]2(CC[C@@H]1C)C[C@@H]1C[C@@H](C/C=C(\C)C[C@@H](C)/C=C/C=C3\CO[C@@H]4[C@H](O)C(C)=C[C@@H](C(=O)O1)[C@]34O)O2
active
COCCCC/C(=N\OCCN)c1ccc(C(F)(F)F)cc1
inactive
CCOC(=O)c1nc(C(Cl)(Cl)Cl)n(-c2ccc(Cl)cc2Cl)n1
inactive
